# TEST DESCRIPTION: Solubility test of GPR 119 agonist compounds (Nephelostar)
# Type: physicochemical
# EXPERIMENTAL PARAMETERS: aqueous with cosolvent or surfactant or cyclodextrin, kinetic from dmso stock; pH 2, 5% DMSO aqueous solution; read-out: Solubility pH 2
# Protocol: 1. Method of Solubility Test Each test compounds were dissolved in 5% DMSO aqueous solution as a solvent at several concentrations. When a laser was irradiated to the solution, the particles, which are not dissolved in the solvent, scatter the light. The level of the scattered light is dependent to the number of the particles, so the solubility of the test compound in the solution can be determined using the relationship. As the test equipment, Nephelostar was used.
PROPERTY MEASURED: solubility

Query: Data request, read-out solubility, for `C[C@@]1(C(N)=O)C[C@@H](O)CN1C(=O)c1ccc(-c2ccc(OCC3CCN(CC4(C(F)(F)F)CCC4)CC3)nc2)c(F)c1`
Reply: > 296 µg/mL

Query: Data request, read-out solubility, for `CC(C)(CN1CCC(COc2ccc(-c3ccc(C(=O)N4C[C@H](O)C[C@H]4C(N)=O)c(F)c3)nc2)CC1)C(F)(F)F`
Reply: > 283 µg/mL

Query: Data request, read-out solubility, for `CCC(F)(CC)CN1CCC(COc2ccc(-c3ccc(C(=O)N4C[C@H](O)C[C@@]4(C)C(N)=O)cc3F)nc2)CC1`
Reply: > 279 µg/mL

Query: Data request, read-out solubility, for CCc1cnc(N2CCC(c3nc(COc4ccc(-n5cnnn5)cc4)cs3)CC2)nc1 [MBX-2982, reference compound]
Reply: > 208 µg/mL

Query: Data request, read-out solubility, for `CCC(F)(CC)CN1CCC(COc2ccc(-c3ccc(C(=O)N4C[C@H](O)C[C@@]4(C)C(N)=O)c(F)c3)nc2)CC1`
Reply: > 279 µg/mL

Query: Data request, read-out solubility, for `C[C@@]1(C(N)=O)C[C@@H](O)CN1C(=O)c1ccc(-c2ccc(OCC3CCN(CC4(C(F)(F)F)CCC4)CC3)cn2)cc1F`
Reply: > 296 µg/mL

Query: Data request, read-out solubility, for `CC(C)(F)CN1CCC(COc2ccc(-c3ccc(C(=O)N4CCC[C@@]4(C)C(N)=O)c(F)c3)nc2)CC1`
Reply: > 257 µg/mL

Query: Data request, read-out solubility, for `CC(C)(CN1CCC(COc2ccc(-c3ccc(C(=O)N4C[C@H](O)C[C@@]4(C)C(N)=O)c(F)c3)nc2)CC1)C(F)(F)F`
Reply: > 290 µg/mL

The measured values listed here are drawn from patent US9776987B2.
